- Target System: Carbonic anhydrase 2 (Homo sapiens)
Under this convention, 1 (yes) denotes Ki strictly below 30 nM and 0 (no) denotes Ki at or above 30 nM.

# Molecule, Label Value
data = [
    ("NS(=O)(=O)Oc1ccc([N+](=O)[O-])cc1", "1 (yes)"),
    ("CC1(C)OCC(C2OC3OC(C)(C)OC3[C@H]2OS(N)(=O)=O)O1 (stereo not given in full)", "1 (yes)"),
    ("NS(=O)(=O)Oc1c(Cl)c(Cl)c(Cl)c(Cl)c1Cl [SULFAMIC ACID PENTACHLOROPHENYL ESTER]", "0 (no)"),
    ("CC(=O)Nc1ccc(OS(N)(=O)=O)cc1", "1 (yes)"),
]

Qu. Item C[C@]12CC[C@@H]3c4ccc(OS(N)(=O)=O)cc4CC[C@H]3[C@@H]1CC[C@@H]2OS(N)(=O)=O : Ki beneath 30 nM, strictly?
Ans. 1 (yes)

Qu. // query: NS(=O)(=O)Oc1c(Cl)cc(Cl)cc1Cl
Ans. 0 (no)

Qu. // query: CC1(C)O[C@@H]2[C@H](O1)[C@H]1OC(C)(C)OC1O[C@@H]2COS(N)(=O)=O (stereo not given in full)
Ans. 1 (yes)

Qu. // query: NS(=O)(=O)Oc1ccc(-c2ccccc2)cc1
Ans. 0 (no)

Qu. // query: C[C@]12CCC(OS(N)(=O)=O)CC1=CCC1C2CC[C@]2(C)C(=O)CCC12 (stereo not given in full)
Ans. 1 (yes)

Qu. // query: C[C@]12CC[C@@H]3c4ccc(O)cc4CC[C@H]3[C@@H]1CC[C@@H]2OS(N)(=O)=O
Ans. 1 (yes)

====

Entries with their measured pKi, system Carbonic anhydrase 9 (Homo sapiens, UniProt Q16790):
Recall that pKi is obtained by taking minus log10 of the concentration measured in molar.

# Compound, Target System, pKi
measured = [
    ("COc1ccc(OS(N)(=O)=O)cc1", "Carbonic anhydrase 9 (Homo sapiens, UniProt Q16790)", 7.47),
    ("NS(=O)(=O)Oc1c(Cl)c(Cl)c(Cl)c(Cl)c1Cl [SULFAMIC ACID PENTACHLOROPHENYL ESTER]", "Carbonic anhydrase 9 (Homo sapiens, UniProt Q16790)", 7.41),
    ("NS(=O)(=O)Oc1ccc(Cl)cc1", "Carbonic anhydrase 9 (Homo sapiens, UniProt Q16790)", 7.74),
]

Qu. Would you mind telling me what pKi value was observed for NS(=O)(=O)OCCOc1ccc(-n2ccnc2)cc1 ?
Ans. 7.59

Qu. // query: C[C@]12CC[C@@H]3c4ccc(OS(N)(=O)=O)cc4CC[C@H]3[C@@H]1CC[C@@H]2OS(N)(=O)=O
Ans. 7.24

Qu. // query: N#Cc1ccc(OS(N)(=O)=O)cc1
Ans. 7.39
